# Test system: A549 cells
# procedure details: CCK-8 cytotoxicity assay, A549
# Assay type: cell-based
# condition set: Homo sapiens, CCK-8, 72 h incubation, three independent experiments, read-out: In vitro cell growth inhibition IC50, A549
Reported values of pIC50 for individual entries
In textbook form, pIC50 equals minus log to base ten of the concentration in mol/L.

Past entries and their recorded results:
- molecule: "CN(C)C(=O)c1cc2cnc(Nc3ccc([S+]([O-])CCCCCN=C=S)cc3)nc2n1C1CCCC1 (stereo not shown) [X7]"
  experimental system: "A549 cells"
  pIC50: 6.17
- molecule: "CN(C)C(=O)c1cc2cnc(Nc3ccc(CS(=O)(=O)CCCN=C=S)cc3)nc2n1C1CCCC1 [X19]"
  experimental system: "A549 cells"
  pIC50: 5.84
- molecule: "CN(C)C(=O)c1cc2cnc(Nc3ccc(S(=O)(=O)CCCCCCN=C=S)cc3)nc2n1C1CCCC1 [X12]"
  experimental system: "A549 cells"
  pIC50: 5.80
- molecule: "CN(C)C(=O)c1cc2cnc(Nc3ccc(CS(=O)(=O)CCCCN=C=S)cc3)nc2n1C1CCCC1 [X20]"
  experimental system: "A549 cells"
  pIC50: 6.42
- molecule: "CN(C)C(=O)c1cc2cnc(Nc3ccc(SCCCN=C=S)cc3)nc2n1C1CCCC1 [X8]"
  experimental system: "A549 cells"
  pIC50: 5.51

Query the reported pIC50 for A549 cells; item: CN(C)C(=O)c1cc2cnc(Nc3ccc(N4CCNCC4)cn3)nc2n1C1CCCC1 [Ribociclib, ribociclib, reference compound]
5.13

Query the reported pIC50 for A549 cells; item: CN(C)C(=O)c1cc2cnc(Nc3ccc(CS(=O)(=O)CCCCCCN=C=S)cc3)nc2n1C1CCCC1 [X22]
6.68

* * *

# System: 4T1 breast cancer cells
# procedure details: CCK-8 cytotoxicity assay, 4T1
# Assay type: cell-based
# condition set: CCK-8, 72 h incubation, three independent experiments; read-out: In vitro cell growth inhibition IC50, 4T1
# Method: All the human cancer cell lines were obtained from ATCC. Cells were cultured in RPMI-1640 (BioInd) medium according to the instructions from ATCC, with the medium containing 10% FBS (BioInd), 1% antibiotics (penicillin and streptomycin) at 37 °C in an atmosphere of 5% CO2. Cytotoxicity assay were conducted as described previously using a Cell Counting Kit-8 (CCK-8) assay (#CK04, Dojindo, Kumamoto, Japan)[37].
assay readout: IC50 (nM)
Report only the number, with the unit nM understood.

- test smiles: "CN(C)C(=O)c1cc2cnc(Nc3ccc(S(=O)(=O)CCCCCCN=C=S)cc3)nc2n1C1CCCC1"
  experimental system: "4T1 breast cancer cells"
  IC50 / nM: 460
- test smiles: "CN(C)C(=O)c1cc2cnc(Nc3ccc(CS(=O)(=O)CCCN=C=S)cc3)nc2n1C1CCCC1"
  experimental system: "4T1 breast cancer cells"
  IC50 / nM: 690

Could you now look at the following compound, please?
Query the reported IC50 for 4T1 breast cancer cells; item: CN(C)C(=O)c1cc2cnc(Nc3ccc(SCCCN=C=S)cc3)nc2n1C1CCCC1
1460

* * *

Reported values of inhibition at 1 µM for individual entries
# experimental system: CDK9 (Homo sapiens, UniProt P50750)
# Construct: purchased Eurofins (KinaseProfiler service)
# Sequence (P50750 whole entry): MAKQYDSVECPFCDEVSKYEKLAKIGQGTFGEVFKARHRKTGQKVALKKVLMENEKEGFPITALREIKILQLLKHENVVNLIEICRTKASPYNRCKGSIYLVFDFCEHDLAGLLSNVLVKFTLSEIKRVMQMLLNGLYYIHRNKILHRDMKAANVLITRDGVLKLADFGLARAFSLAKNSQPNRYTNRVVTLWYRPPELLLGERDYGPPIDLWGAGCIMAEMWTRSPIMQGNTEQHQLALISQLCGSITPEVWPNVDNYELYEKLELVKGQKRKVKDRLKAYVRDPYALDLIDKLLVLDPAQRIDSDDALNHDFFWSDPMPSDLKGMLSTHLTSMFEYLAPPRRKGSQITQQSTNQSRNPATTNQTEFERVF
# Sequence (O60563 whole entry partner): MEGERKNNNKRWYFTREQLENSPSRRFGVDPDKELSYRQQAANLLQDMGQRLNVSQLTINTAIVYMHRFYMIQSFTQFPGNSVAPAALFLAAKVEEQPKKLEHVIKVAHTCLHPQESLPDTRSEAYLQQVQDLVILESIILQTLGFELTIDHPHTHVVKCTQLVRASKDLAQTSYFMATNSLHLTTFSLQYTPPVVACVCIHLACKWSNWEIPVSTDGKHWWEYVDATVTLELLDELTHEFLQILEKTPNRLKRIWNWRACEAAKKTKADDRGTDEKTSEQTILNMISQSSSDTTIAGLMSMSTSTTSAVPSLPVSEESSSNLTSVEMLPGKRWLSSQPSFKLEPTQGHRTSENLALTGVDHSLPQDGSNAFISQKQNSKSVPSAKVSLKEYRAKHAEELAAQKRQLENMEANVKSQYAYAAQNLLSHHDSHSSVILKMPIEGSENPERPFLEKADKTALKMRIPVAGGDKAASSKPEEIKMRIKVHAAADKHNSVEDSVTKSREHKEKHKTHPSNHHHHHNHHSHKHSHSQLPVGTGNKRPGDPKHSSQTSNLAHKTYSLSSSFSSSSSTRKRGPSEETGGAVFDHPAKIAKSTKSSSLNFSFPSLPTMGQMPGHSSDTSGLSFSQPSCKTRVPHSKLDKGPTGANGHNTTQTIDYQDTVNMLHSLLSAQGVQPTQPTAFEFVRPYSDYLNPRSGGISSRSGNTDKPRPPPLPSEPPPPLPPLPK
# procedure details: Kinase inhibition assay (KinaseProfiler, Eurofins), CDK9
# Type: biochemical
Report only the number, with the unit % understood.

Past entries and their recorded results:
- molecule: "CN(C)C(=O)c1cc2cnc(Nc3ccc([S+]([O-])CCCCCN=C=S)cc3C(F)(F)F)nc2n1C1CCCC1 (centres unmarked)"
  assay readout: "inhibition at 1 µM"
  value observed: 97
- molecule: "CN(C)C(=O)c1cc2cnc(Nc3ccc(S(=O)(=O)CCCCCN=C=S)cc3C(F)(F)F)nc2n1C1CCCC1"
  assay readout: "inhibition at 1 µM"
  value observed: 75
- molecule: "CN(C)C(=O)c1cc2cnc(Nc3ccc(CS(=O)(=O)CCCCCN=C=S)cc3)nc2n1C1CCCC1"
  assay readout: "inhibition at 1 µM"
  value observed: 98
- molecule: "CN(C)C(=O)c1cc2cnc(Nc3ccc(CS(=O)(=O)CCCCCCCN=C=S)cc3)nc2n1C1CCCC1"
  assay readout: "inhibition at 1 µM"
  value observed: 97

What inhibition at 1 µM value was documented for this molecule, CN(C)C(=O)c1cc2cnc(Nc3ccc(CSCCCCCCN=C=S)cc3)nc2n1C1CCCC1 ?
94

What inhibition at 1 µM value was documented for this molecule, CN(C)C(=O)c1cc2cnc(Nc3ccc(SCCCCCN=C=S)cc3C(F)(F)F)nc2n1C1CCCC1 ?
41

What inhibition at 1 µM value was documented for this molecule, CN(C)C(=O)c1cc2cnc(Nc3ccc(CSCCCCCN=C=S)cc3)nc2n1C1CCCC1 ?
94

What inhibition at 1 µM value was documented for this molecule, CN(C)C(=O)c1cc2cnc(Nc3ccc(S(=O)(=O)CCCCN=C=S)cc3)nc2n1C1CCCC1 ?
98

* * *

# System: 4T1 breast cancer cells
# procedure details: CCK-8 cytotoxicity assay, 4T1
# Assay type: cell-based
# condition set: CCK-8, 72 h incubation, three independent experiments; read-out: In vitro cell growth inhibition IC50, 4T1
assay readout: pIC50
In textbook form, pIC50 equals minus log to base ten of the concentration in mol/L.

Past entries and their recorded results:
- molecule: "CN(C)C(=O)c1cc2cnc(Nc3ccc([S+]([O-])CCCCCN=C=S)cc3)nc2n1C1CCCC1 (stereo not drawn)"
  pIC50: 6.39
- molecule: "CN(C)C(=O)c1cc2cnc(Nc3ccc(CS(=O)(=O)CCCCCCN=C=S)cc3)nc2n1C1CCCC1"
  pIC50: 7.08

Could you now look at the following molecule, please?
What pIC50 value was documented for this molecule, CN(C)C(=O)c1cc2cnc(Nc3ccc(CS(=O)(=O)CCCCN=C=S)cc3)nc2n1C1CCCC1 ?
6.59

* * *

Consider the following IC50 values measured on UniProt P50750.
Report only the number, with the unit nM understood.

- test smiles: "CN(C)C(=O)c1cc2cnc(Nc3ccc(SCCCN=C=S)cc3)nc2n1C1CCCC1"
  IC50, nM: 16
- test smiles: "CN(C)C(=O)c1cc2cnc(Nc3ccc(CS(=O)(=O)CCCCCCN=C=S)cc3)nc2n1C1CCCC1"
  IC50, nM: 10
- test smiles: "CN(C)C(=O)c1cc2cnc(Nc3ccc(CS(=O)(=O)CCCCN=C=S)cc3)nc2n1C1CCCC1"
  IC50, nM: 7

Could you now look at the following compound, please?
Query the reported IC50 for UniProt P50750; item: CN(C)C(=O)c1cc2cnc(Nc3ccc(S(=O)(=O)CCCCCCCN=C=S)cc3)nc2n1C1CCCC1
24

* * *

# experimental system: CDK6 (Homo sapiens, UniProt Q00534)
# Construct: purchased Eurofins (KinaseProfiler service)
# Sequence (Q00534 whole entry): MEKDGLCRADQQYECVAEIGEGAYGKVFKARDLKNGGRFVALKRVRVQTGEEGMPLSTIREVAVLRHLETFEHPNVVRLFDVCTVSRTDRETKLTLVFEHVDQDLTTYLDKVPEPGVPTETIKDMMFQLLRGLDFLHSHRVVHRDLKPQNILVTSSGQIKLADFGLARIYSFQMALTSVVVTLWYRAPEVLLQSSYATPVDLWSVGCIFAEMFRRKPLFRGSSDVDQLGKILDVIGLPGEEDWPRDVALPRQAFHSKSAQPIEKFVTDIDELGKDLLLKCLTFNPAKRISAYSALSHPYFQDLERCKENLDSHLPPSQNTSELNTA
# Sequence (P30281 whole entry partner): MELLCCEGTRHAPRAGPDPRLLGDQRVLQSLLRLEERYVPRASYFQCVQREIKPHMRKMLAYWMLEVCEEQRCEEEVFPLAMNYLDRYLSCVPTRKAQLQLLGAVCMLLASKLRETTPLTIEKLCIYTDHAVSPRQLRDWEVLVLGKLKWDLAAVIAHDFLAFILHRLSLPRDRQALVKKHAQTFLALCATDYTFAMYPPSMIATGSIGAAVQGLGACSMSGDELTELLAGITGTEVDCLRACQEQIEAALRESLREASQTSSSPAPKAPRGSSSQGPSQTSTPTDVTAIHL
# procedure details: Kinase inhibition assay (KinaseProfiler, Eurofins), CDK6
# Type: biochemical
assay readout: inhibition at 1 µM (%)
Report only the number, with the unit % understood.

- test smiles: "CN(C)C(=O)c1cc2cnc(Nc3ccc(CSCCCCN=C=S)cc3)nc2n1C1CCCC1"
  unit text: "%"
  inhibition at 1 µM: 76

What inhibition at 1 µM value was documented for this compound, CN(C)C(=O)c1cc2cnc(Nc3ccc(S(=O)(=O)CCCCCN=C=S)cc3C(F)(F)F)nc2n1C1CCCC1 ?
14

What inhibition at 1 µM value was documented for this compound, CN(C)C(=O)c1cc2cnc(Nc3ccc(S(=O)(=O)CCCN=C=S)cc3)nc2n1C1CCCC1 ?
92

What inhibition at 1 µM value was documented for this compound, CN(C)C(=O)c1cc2cnc(Nc3ccc(S(=O)(=O)CCCCCN=C=S)cc3)nc2n1C1CCCC1 ?
82

* * *

# experimental system: CDK9 (Homo sapiens, UniProt P50750)
# Construct: purchased Eurofins (KinaseProfiler service)
# procedure details: Kinase inhibition assay (KinaseProfiler, Eurofins), CDK9
# Type: biochemical
assay readout: inhibition at 1 µM
State the value, then name its unit.

- compound: "CN(C)C(=O)c1cc2cnc(Nc3ccc(CS(=O)(=O)CCCCCCN=C=S)cc3)nc2n1C1CCCC1"
  experimental system: "CDK9 (Homo sapiens, UniProt P50750)"
  inhibition at 1 µM: "98%"
- compound: "CN(C)C(=O)c1cc2cnc(Nc3ccc(S(=O)(=O)CCCCCCCN=C=S)cc3)nc2n1C1CCCC1"
  experimental system: "CDK9 (Homo sapiens, UniProt P50750)"
  inhibition at 1 µM: "96%"
- compound: "CN(C)C(=O)c1cc2cnc(Nc3ccc(CS(=O)(=O)CCCCN=C=S)cc3)nc2n1C1CCCC1"
  experimental system: "CDK9 (Homo sapiens, UniProt P50750)"
  inhibition at 1 µM: "98%"

Could you now look at the following compound, please?
What inhibition at 1 µM value was documented for this compound, CN(C)C(=O)c1cc2cnc(Nc3ccc(SCCCN=C=S)cc3)nc2n1C1CCCC1 ?
97%
